Documented hERG current change (%, negative = inhibition) at 10uM across a set of compounds
Biological target: human ether-à-go-go-related gene (hERG) potassium channel (human);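 also: peak tail current of the secondary pulse compared with the same well before compound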
Sequence (Q12809 whole entry, looked up): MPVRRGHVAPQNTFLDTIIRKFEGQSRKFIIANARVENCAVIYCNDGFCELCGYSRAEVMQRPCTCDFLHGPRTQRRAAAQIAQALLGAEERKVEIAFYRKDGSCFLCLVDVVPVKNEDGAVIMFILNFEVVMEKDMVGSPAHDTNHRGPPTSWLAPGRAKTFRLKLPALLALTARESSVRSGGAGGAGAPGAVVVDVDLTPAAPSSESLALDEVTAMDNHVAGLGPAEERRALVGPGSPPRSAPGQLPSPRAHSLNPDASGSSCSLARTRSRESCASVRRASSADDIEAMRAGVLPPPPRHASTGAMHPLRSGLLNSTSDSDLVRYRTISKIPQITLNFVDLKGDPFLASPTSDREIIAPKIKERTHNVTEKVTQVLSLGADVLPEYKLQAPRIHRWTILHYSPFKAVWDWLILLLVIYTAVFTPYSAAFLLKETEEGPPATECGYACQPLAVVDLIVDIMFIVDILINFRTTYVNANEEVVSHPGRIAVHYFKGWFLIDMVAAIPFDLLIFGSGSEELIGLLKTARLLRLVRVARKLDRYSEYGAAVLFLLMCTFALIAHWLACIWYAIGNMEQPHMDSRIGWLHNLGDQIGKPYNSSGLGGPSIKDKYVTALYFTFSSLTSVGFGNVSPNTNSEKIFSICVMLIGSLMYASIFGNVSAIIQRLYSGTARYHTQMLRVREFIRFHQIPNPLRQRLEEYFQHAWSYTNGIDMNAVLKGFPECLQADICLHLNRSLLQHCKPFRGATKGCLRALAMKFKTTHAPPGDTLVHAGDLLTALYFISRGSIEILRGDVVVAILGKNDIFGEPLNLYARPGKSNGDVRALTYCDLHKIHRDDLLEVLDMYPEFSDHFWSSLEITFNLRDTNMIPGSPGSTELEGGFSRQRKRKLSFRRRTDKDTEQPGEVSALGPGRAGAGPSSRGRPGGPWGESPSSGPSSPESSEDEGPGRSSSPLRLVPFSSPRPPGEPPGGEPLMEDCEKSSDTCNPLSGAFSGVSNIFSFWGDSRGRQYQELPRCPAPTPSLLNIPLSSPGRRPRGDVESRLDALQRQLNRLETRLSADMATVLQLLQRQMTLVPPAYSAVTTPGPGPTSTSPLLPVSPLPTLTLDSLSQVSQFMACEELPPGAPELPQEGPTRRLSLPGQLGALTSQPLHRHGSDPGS
Experiment: primary screen, population patch clamp on CHO cells stably expressing hERG; higher = less effect of the substance
Screen size: about 310,000 compounds; about 14,000 (4.5%) showed an effect of 50% or more. The effect is printed as a negative number. This is one part of a sample in which strong results are shown more often than they occur.
RECORDED METRIC: hERG current change (%, negative = inhibition) at 10uM (%)

>>> experimental_value("Cn1c(=O)cc(SCC(=O)N2CCN(C(=O)c3ccco3)CC2)c2ccccc21")
-27.4
>>> experimental_value("CC1=C(C(=O)OCC2CCCO2)C(c2ccccc2OC(C)C)C2=C(CC(c3ccco3)CC2=O)N1 (stereo not shown)")
-57.8
>>> experimental_value("COc1cc(SC)ccc1C(=O)N1CCN(c2ccc(O)cc2)CC1")
-34.2
>>> experimental_value("O=C(C[n+]1ccc(C(=O)NCc2ccccc2)cc1)c1ccc2c(c1)OCCO2.[Br-]")
12.9
>>> experimental_value("COc1cc(SC)ccc1C(=O)N1CCN(c2ccccc2)CC1")
-17.2
>>> experimental_value("O=C(CNC(=O)c1ccc(OC(F)F)cc1)NCc1ccccn1")
-70.9
>>> experimental_value("CCOc1ccc(C(=O)C[n+]2ccc(C(=O)NCc3ccccc3)cc2)cc1.[Br-]")
-36
>>> experimental_value("COC(=O)c1c(NC(=O)C2CCCO2)sc2c1CCC2 (stereo not shown)")
-3.4
>>> experimental_value("O=C(CNC(=O)c1ccc(F)cc1)NCc1ccccn1")
-1.73
>>> experimental_value("O=C(NCCc1ccccn1)c1ccc(OC(F)F)cc1")
-24.7
